Biological target: cathepsin B (Homo sapiens, UniProt P07858)
Experiment: Cathepsin B activity assay with Z-Phe-Arg-AMC, inhibition kinetics
Format: biochemical
Settings: pH 7.2
observationType: IC50

[[record]]
molecule = "CCCNC(=O)[C@H]1O[C@@H]1C(=O)N[C@H](C(=O)N1CCC[C@H]1C(=O)OC)[C@@H](C)CC [CA-074Me]"
recordedvalue = "7.6 µM"


----------
Biological target: Cathepsin X (Homo sapiens)
Sequence (Q9UBR2 62-303): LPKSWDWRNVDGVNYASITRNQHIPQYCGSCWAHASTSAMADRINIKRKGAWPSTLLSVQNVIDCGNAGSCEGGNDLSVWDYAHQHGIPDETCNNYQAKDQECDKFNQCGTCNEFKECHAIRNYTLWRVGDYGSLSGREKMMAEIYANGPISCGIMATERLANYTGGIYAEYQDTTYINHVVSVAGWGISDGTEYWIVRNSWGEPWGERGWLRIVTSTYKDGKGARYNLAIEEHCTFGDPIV
Experiment: Selectivity assay, cathepsin X
Type: biochemical
Conditions: pH 5.5
Listed here are molecules together with their documented IC50.
observationType: IC50

[[record]]
molecule = "CCCNC(=O)[C@H]1O[C@@H]1C(=O)N[C@H](C(=O)N1CCC[C@H]1C(=O)O)[C@@H](C)CC (relative stereo)"
recordedvalue = "> 16 µM"

[[record]]
molecule = "CCCNC(=O)[C@H]1O[C@@H]1C(=O)N[C@H](C(=O)N1CCC[C@H]1C(=O)OC)[C@@H](C)CC [CA-074Me]"
recordedvalue = "> 16 µM"


----------
Target: cathepsin B (Homo sapiens, UniProt P07858)
Experiment: Cathepsin B activity assay with Z-Phe-Arg-AMC, inhibition kinetics
Assay type: biochemical
Settings: pH 4.6
pIC50: −log10 of the molar value.
observationType: pIC50

[[record]]
compound = "CCCNC(=O)[C@H]1O[C@@H]1C(=O)N[C@H](C(=O)N1CCC[C@H]1C(=O)OC)[C@@H](C)CC [CA-074Me]"
assayedsystem = "cathepsin B (Homo sapiens, UniProt P07858)"
recordedvalue = 5.05


----------
Target: Cathepsin C (Homo sapiens)
Sequence (P53634 25-134 limits assumed): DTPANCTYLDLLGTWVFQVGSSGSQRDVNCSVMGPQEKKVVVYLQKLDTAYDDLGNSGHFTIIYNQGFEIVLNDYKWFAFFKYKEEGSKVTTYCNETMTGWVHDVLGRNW
Sequence (P53634 231-394 limits assumed): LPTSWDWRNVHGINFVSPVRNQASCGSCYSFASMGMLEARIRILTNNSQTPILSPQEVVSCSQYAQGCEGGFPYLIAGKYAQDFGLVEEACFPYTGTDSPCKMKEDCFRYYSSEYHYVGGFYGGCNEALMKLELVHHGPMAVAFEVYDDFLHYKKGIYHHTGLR
Sequence (P53634 395-463 limits assumed): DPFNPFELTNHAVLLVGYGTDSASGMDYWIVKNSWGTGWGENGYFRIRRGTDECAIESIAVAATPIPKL
Experiment: Selectivity assay, cathepsin C
Format: biochemical
Conditions: pH 4.6
pIC50: −log10 of the molar value.
Listed here are molecules together with their documented pIC50.
observationType: pIC50

[[record]]
molecule = "CCCNC(=O)[C@H]1O[C@@H]1C(=O)N[C@H](C(=O)N1CCC[C@H]1C(=O)OC)[C@@H](C)CC [CA-074Me]"
observationtype = "pIC50"
recordedvalue = "< 4.80"

[[record]]
molecule = "CCCNC(=O)[C@H]1O[C@@H]1C(=O)N[C@H](C(=O)N1CCC[C@H]1C(=O)O)[C@@H](C)CC (relative stereo) [CA-074]"
observationtype = "pIC50"
recordedvalue = "< 4.80"


----------
Molecular target: Cathepsin K (Homo sapiens)
Sequence (P43235 115-329): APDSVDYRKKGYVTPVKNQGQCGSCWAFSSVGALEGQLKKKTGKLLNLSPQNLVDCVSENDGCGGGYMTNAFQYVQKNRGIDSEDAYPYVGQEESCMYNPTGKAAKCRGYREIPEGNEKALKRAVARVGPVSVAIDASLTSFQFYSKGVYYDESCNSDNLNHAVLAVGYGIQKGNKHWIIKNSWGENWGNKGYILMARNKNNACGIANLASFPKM
Assay: Selectivity assay, cathepsin K
Format: biochemical
Conditions: pH 5.5
pIC50: −log10 of the molar value.
Listed here are compounds together with their documented pIC50.
observationType: pIC50

[[record]]
compound = "CCCNC(=O)[C@H]1O[C@@H]1C(=O)N[C@H](C(=O)N1CCC[C@H]1C(=O)O)[C@@H](C)CC (relative stereo) [CA-074]"
recordedvalue = "< 4.80"

[[record]]
compound = "CCCNC(=O)[C@H]1O[C@@H]1C(=O)N[C@H](C(=O)N1CCC[C@H]1C(=O)OC)[C@@H](C)CC [CA-074Me]"
recordedvalue = "< 4.80"


----------
Biological target: Cathepsin H (Homo sapiens)
Sequence (P09668 116-335 limits assumed, other chains not shown): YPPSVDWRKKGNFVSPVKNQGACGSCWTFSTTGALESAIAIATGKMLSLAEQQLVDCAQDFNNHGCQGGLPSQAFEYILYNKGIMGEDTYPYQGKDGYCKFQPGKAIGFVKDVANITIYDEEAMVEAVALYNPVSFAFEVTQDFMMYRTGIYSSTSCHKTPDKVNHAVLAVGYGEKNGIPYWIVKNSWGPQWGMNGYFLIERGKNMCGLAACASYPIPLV
Experiment: Selectivity assay, cathepsin H
Format: biochemical
Conditions: pH 7.2
pIC50: −log10 of the molar value.
observationType: pIC50

[[record]]
molecule = "CCCNC(=O)[C@H]1O[C@@H]1C(=O)N[C@H](C(=O)N1CCC[C@H]1C(=O)OC)[C@@H](C)CC [CA-074Me]"
observationtype = "pIC50"
recordedvalue = "< 4.80"


----------
Molecular target: Cathepsin V (Homo sapiens, UniProt O60911)
Sequence (O60911 114-334): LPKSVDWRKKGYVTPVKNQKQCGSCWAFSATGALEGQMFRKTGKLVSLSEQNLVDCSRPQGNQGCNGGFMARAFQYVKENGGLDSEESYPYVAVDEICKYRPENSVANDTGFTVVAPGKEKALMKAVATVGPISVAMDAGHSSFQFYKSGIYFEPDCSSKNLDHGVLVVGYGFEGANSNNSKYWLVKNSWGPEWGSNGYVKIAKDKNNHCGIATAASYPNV
Test: Selectivity assay, cathepsin V
Type: biochemical
Conditions: pH 4.6
observationType: IC50

[[record]]
compound = "CCCNC(=O)[C@H]1O[C@@H]1C(=O)N[C@H](C(=O)N1CCC[C@H]1C(=O)O)[C@@H](C)CC (relative stereo)"
observationtype = "IC50"
recordedvalue = "> 16 µM"


----------
Listed here are molecules together with their documented pIC50.
Target: Cathepsin S (Homo sapiens, UniProt P25774)
Sequence (P25774 115-331): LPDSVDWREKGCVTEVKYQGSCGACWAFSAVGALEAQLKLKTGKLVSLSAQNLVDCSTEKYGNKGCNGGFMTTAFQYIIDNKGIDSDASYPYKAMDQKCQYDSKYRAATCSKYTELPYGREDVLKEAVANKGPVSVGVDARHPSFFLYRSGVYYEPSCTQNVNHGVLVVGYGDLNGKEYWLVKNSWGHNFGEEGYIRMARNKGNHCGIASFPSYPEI
Experiment: Selectivity assay, cathepsin S
Assay type: biochemical
Details: pH 4.6
pIC50: −log10 of the molar value.
observationType: pIC50

[[record]]
molecule = "CCCNC(=O)[C@H]1O[C@@H]1C(=O)N[C@H](C(=O)N1CCC[C@H]1C(=O)OC)[C@@H](C)CC [CA-074Me]"
recordedvalue = "< 4.80"

[[record]]
molecule = "CCCNC(=O)[C@H]1O[C@@H]1C(=O)N[C@H](C(=O)N1CCC[C@H]1C(=O)O)[C@@H](C)CC (relative stereo)"
recordedvalue = "< 4.80"

